# experimental.protocol: Drug repurposing screens with cells derived from glioblastoma tumor samples (AID 1345199); further: on the % scale 0 is the no-effect control and ±100 the full control effect; nearly all actives have a fitted effect of over 40% in size
# measurement.context: GBM patient neurospheres viability, ATP luminescence, 48 h; at 45.9 µM (top of the series); tumour line B
Inconclusive results are not listed.
parameter: activity, negative = cell killing (%)
Answer with a number only, understood to be in %.

[[record]]
compound = "CN(Cc1cc(Br)cc(Br)c1N)C1CCCCC1"
unit_descriptor = "%"
reported_result = -30.4

[[record]]
compound = "CC(=O)[C@H]1CC[C@H]2[C@@H]3CCC4=CC(=O)CC[C@]4(C)[C@H]3CC[C@]12C"
unit_descriptor = "%"
reported_result = -26.3


stdin: Name the reported activity, negative = cell killing value associated with the compound `COc1ncnc(NS(=O)(=O)c2ccc(N)cc2)c1OC`
stdout: -5.91

stdin: Now give it for `CC[C@H](NC(C)C)[C@H](O)c1ccc(O)c2[nH]c(=O)ccc12` too.
stdout: -9.21

stdin: Now give it for Cc1oc(=O)oc1CN1CCN(c2cc3c(cc2F)c(=O)c(C(=O)O)c2n3C(C)S2)CC1 (stereo unspecified) too.
stdout: -20.2

stdin: Now give it for `O=NN(CCCl)C(=O)NC1CCCCC1` too.
stdout: -2.15

stdin: Now give it for `CC1(C)[C@H](C(=O)O)N2C(=O)C[C@H]2S1(=O)=O` too.
stdout: 1.79

stdin: Now give it for `O=c1cc(O)c(Cl)c[nH]1` too.
stdout: -16

stdin: Now give it for `CCC(=O)O[C@]1(C(=O)CCl)[C@@H](C)C[C@H]2[C@@H]3CCC4=CC(=O)C=C[C@]4(C)[C@@]3(F)[C@@H](O)C[C@@]21C` too.
stdout: -2.08

stdin: Now give it for CC(C(=O)O)c1ccc2c(c1)CC(=O)c1ccccc1S2 (stereo unspecified) too.
stdout: -3.56

stdin: Now give it for `Cn1nnc2c(C(N)=O)ncn2c1=O` too.
stdout: -3.24

----------
# System: SKOV3
# experimental.protocol: Primary qHTS to identify gynecologic anti-cancer compounds using libraries of approved drugs and bioactive compounds (AID 1345084); further: nearly all actives have a fitted effect of over 55% in size; further: potency means the concentration at half of the fitted maximal effect
# measurement.context: Gynecologic cancer cell panel viability, ATPlite luminescence, 48 h; series mostly up to 57.5 µM
Records with an inconclusive call do not appear. Calls of active or inactive are those of the source. Calls come from the whole dose curve; as a rule, active = well fitted cell-killing curve with a large enough effect; inconclusive = small, poorly fitted or top-dose-only effect, or effect the other way; inactive = flat fitted curve, though single readings scatter.
parameter: Potency

Sample records with Potency:
[[record]]
compound = "C#CCN[C@@H]1CCc2ccccc21"
reported_result = "inactive"

[[record]]
compound = "CC(N)C12CC3CC(CC(C3)C1)C2 (stereo not given)"
reported_result = "inactive"

[[record]]
compound = "CNS(=O)(=O)CCc1ccc2[nH]cc(C3CCN(C)CC3)c2c1"
reported_result = "inactive"

[[record]]
compound = "CC1=CC(=O)c2ccccc2C1=O"
reported_result = "inactive"

[[record]]
compound = "CCCc1cc(C(N)=S)ccn1"
reported_result = "inactive"

[[record]]
compound = "NC(=O)c1cccnc1"
reported_result = "inactive"


stdin: Name the reported Potency value associated with the compound CC(C)C1CCC(C(=O)N[C@H](Cc2ccccc2)C(=O)O)CC1 (stereo not given in full)
stdout: inactive

stdin: Now give it for `Cc1cccc(N(C)C(=S)Oc2ccc3ccccc3c2)c1` too.
stdout: inactive

stdin: Now give it for `O=c1oc2c(O)c(O)cc3c(=O)oc4c(O)c(O)cc1c4c23` too.
stdout: inactive

stdin: Now give it for `CCN[C@H]1C[C@H](C)S(=O)(=O)c2sc(S(N)(=O)=O)cc21` too.
stdout: inactive

stdin: Now give it for `CN(C)CCc1c[nH]c2ccc(CS(=O)(=O)N3CCCC3)cc12` too.
stdout: inactive

stdin: Now give it for `CCN(C)C(=O)Oc1cccc([C@H](C)N(C)C)c1` too.
stdout: inactive

stdin: Now give it for CN(CCOc1ccc(CC2SC(=O)NC2=O)cc1)c1ccccn1 (stereo not given) too.
stdout: inactive

stdin: Now give it for `O=C(O)CCn1c2c(c3ccccc31)C[C@H](NS(=O)(=O)c1ccc(F)cc1)CC2` too.
stdout: inactive

stdin: Now give it for `O=S(=O)(O)CCS` too.
stdout: inactive

stdin: Now give it for `COC(c1ccccc1)(c1ccccc1)[C@H](Oc1nc(C)cc(C)n1)C(=O)O` too.
stdout: inactive

stdin: Now give it for `Nc1nc(F)nc2c1ncn2[C@@H]1O[C@H](CO)[C@@H](O)[C@@H]1O` too.
stdout: inactive

stdin: Now give it for `CNCC[C@H](Oc1cccc2ccccc12)c1cccs1` too.
stdout: 20 µM (active)

stdin: Now give it for `COCCCOc1cc(C[C@@H](C[C@H](N)[C@@H](O)C[C@H](C(=O)NCC(C)(C)C(N)=O)C(C)C)C(C)C)ccc1OC` too.
stdout: inactive

stdin: Now give it for `CS(=O)(=O)c1ccc([C@@H](O)[C@@H](CO)NC(=O)C(Cl)Cl)cc1` too.
stdout: inactive
